# Target desc: Fuc(a1-2)[Gal(a1-4)]Gal(b1-4)GlcNAc
# Assay explanation: glycan array binding signal (z-score within array); higher = stronger binding
# Condition set: glycan notation: IUPAC condensed, linker removed
This is one part of a sample in which the strongest signals are shown more often than they occur.
glycan array binding signal (z-score) values, listed per item
Reported endpoint: glycan array binding signal (z-score)

INSERT INTO measurements (binder, reported_endpoint, test_result) VALUES
  ('RsaA-N-term (Caulobacter crescentus), P35828 (protein) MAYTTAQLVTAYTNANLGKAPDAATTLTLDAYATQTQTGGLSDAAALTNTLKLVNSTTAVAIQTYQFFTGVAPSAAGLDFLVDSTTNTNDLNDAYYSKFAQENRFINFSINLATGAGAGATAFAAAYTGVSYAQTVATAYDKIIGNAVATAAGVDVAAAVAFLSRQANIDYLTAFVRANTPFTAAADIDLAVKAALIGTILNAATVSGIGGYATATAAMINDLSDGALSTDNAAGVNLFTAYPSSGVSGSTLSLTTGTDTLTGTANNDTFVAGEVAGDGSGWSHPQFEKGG', 'glycan array binding signal (z-score)', -0.479),
  ('Tap1 (Sordaria macrospora), Q50IV4 (protein) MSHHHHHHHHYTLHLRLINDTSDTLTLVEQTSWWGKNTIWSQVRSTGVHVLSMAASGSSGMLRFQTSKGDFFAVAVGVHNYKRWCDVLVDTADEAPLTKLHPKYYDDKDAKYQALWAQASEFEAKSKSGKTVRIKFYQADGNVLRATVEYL', 'glycan array binding signal (z-score)', -0.242),
  ('LysMD3 (Homo sapiens), Q7Z3D4 (protein) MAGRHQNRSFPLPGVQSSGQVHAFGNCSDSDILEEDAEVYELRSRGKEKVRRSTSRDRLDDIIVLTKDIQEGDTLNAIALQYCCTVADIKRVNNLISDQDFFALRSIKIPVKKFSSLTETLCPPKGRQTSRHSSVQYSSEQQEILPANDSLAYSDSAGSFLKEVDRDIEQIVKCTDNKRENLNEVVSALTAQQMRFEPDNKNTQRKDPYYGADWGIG', 'glycan array binding signal (z-score)', 2.84);
